Target: Cell division control protein 42 homolog (Homo sapiens) (UniProt P60953)
Sequence (P60953 whole entry, looked up, change not shown): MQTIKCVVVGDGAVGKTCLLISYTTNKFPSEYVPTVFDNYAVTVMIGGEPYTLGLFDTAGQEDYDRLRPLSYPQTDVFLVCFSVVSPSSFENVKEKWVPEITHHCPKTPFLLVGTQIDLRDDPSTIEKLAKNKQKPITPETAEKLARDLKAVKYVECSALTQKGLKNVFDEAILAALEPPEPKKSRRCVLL
Experiment: activated Cdc42 mutant GTP binding inhibitors, SAR follow-up, biochemical, pyrazoline analogs, multiplex bead flow cytometry, Ki (AID 2020)
Details: bead-based flow cytometry, Bodipy-FL-GTP binding
Calls of active or inactive are those of the source.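 How the source made its calls: active means EC50 at or below 30 µM together with a response span of at least a set limit; inactive means the rest.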
Respond with a class label; see 1 (yes) = active, 0 (no) = inactive

Worked set:
COMPOUND | CATEGORY
COc1ccc(C2CC(c3ccccc3)=NN2c2ccc(Cl)c(C(=O)O)c2)cc1OC (stereo not given) | 0 (no)
COc1ccc(C2CC(c3ccccc3OC)=NN2c2ccc(S(N)(=O)=O)cc2)cc1 (stereo not given) | 1 (yes)
COc1ccc(C2CC(c3ccc(C(F)(F)F)cc3)=NN2c2ccc(S(N)(=O)=O)cc2)cc1 (stereo not given) | 0 (no)
Cc1ccc(-c2cc(C(F)(F)F)nn2-c2ccc(S(N)(=O)=O)cc2)cc1 | 0 (no)
COc1ccc(C2CC(c3ccncc3)=NN2c2ccc(S(N)(=O)=O)cc2)cc1 (stereo not given) | 0 (no)
CC(=O)Oc1ccc(C2=NN(c3ccccc3)C(c3ccccc3)C2)cc1 (stereo not given) | 0 (no)
COc1ccc(C2CC(c3ccccc3)=NN2c2ccc(C(N)=O)cc2)cc1 (stereo not given) | 0 (no)
O=[N+]([O-])c1ccc(N2N=C(c3ccccc3)CC2c2ccc(O)cc2)cc1 (stereo not given) | 0 (no)

Query :: Please state the recorded outcome for this compound: NS(=O)(=O)c1ccc(N2N=C(c3ccccc3)CC2c2ccccc2)cc1 (stereo not given)
Result :: 1 (yes)

Query :: Please state the recorded outcome for this compound: NS(=O)(=O)c1ccc(N2N=C(c3ccccc3)CC2c2ccc(Br)cc2)cc1 (stereo not given)
Result :: 1 (yes)
